test system: PBMC; experiment: Induction of proinflammatory cytokine release in human PBMC after 12 hrs; type: cell-based
readout_kind: Activity

| chem_smiles | measured |
| --- | --- |
| CCCCNc1oc2c(C)ncc(CO)c2c1Nc1ccccn1 | Non-toxic |
| CCCc1nc2c(N)nc3ccccc3c2s1 | Toxic |
| Cc1ncc(CO)c2c(Nc3ccccn3)c(NCc3ccccc3)oc12 | Non-toxic |
| Cc1ncc(CO)c2c(Nc3ccccn3)c(NC[Si](C)(C)C)oc12 | Non-toxic |
| CCCCCNc1oc2c(C)ncc(CO)c2c1Nc1ccccn1 | Non-toxic |

* * *

Collected pEC50 values appear next to each entry.
target: Toll-like receptor 8 (Homo sapiens); test: Agonist activity at human TLR8 expressed in HEK293 cells assessed as induction of NF-kappaB activity by measuring extracellular secreted alkaline phosphatase by HEK-blue reporter gene assay; assay type: functional, cell-based; conditions: read-out: EC50
Sequence (Q9NR97 whole entry): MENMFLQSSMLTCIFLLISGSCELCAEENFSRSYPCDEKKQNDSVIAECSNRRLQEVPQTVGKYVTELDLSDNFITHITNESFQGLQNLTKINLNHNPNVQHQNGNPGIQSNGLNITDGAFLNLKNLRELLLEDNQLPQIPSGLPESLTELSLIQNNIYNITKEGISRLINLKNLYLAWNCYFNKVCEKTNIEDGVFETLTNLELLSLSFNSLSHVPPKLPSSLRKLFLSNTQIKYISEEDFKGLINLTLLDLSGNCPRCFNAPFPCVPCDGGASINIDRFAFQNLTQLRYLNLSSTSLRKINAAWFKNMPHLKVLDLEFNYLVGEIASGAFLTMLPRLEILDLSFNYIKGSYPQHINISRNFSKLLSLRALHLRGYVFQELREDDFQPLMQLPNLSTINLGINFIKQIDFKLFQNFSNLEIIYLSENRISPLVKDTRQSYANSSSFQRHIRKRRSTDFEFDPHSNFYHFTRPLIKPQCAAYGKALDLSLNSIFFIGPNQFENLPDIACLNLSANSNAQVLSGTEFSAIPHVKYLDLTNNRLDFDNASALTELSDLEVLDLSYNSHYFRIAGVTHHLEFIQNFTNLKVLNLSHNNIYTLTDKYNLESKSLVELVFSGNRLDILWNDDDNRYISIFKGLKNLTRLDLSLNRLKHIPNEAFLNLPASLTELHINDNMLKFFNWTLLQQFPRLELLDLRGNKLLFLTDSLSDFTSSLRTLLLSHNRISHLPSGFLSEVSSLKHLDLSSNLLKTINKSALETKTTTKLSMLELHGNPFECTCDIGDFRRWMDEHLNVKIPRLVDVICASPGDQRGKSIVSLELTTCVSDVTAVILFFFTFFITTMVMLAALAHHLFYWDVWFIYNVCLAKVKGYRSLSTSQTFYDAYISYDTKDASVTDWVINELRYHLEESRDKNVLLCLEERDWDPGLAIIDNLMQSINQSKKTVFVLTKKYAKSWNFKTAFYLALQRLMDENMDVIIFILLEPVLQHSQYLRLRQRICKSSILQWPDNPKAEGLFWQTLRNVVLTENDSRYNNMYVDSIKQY
pEC50: −log10 of the molar value.
readout_kind: pEC50

| chem_smiles | measured |
| --- | --- |
| Cc1ncc(CO)c2c(Nc3ccccn3)c(NCc3ccccc3)oc12 | 5.31 |
| Cc1ncc(CO)c2c(Nc3ccccn3)c(NC[Si](C)(C)C)oc12 | 5.30 |
| Cc1ncc(CO)c2c(Nc3ccccc3)c(NCc3ccccc3)oc12 | 5.77 |
| Cc1ncc(CO)c2c(Nc3ccccn3)c(NC3CCCCC3)oc12 | 5.16 |
| Cc1ncc(CO)c2c(Nc3ccccn3)c(NCCCCCCNc3oc4c(C)ncc(CO)c4c3Nc3ccccn3)oc12 | 5.47 |
| CCCCCNc1oc2c(C)ncc(CO)c2c1Nc1ccccn1 | 5.24 |
| CCCCCNc1oc2c(C)ncc(CO)c2c1Nc1cccc([N+](=O)[O-])c1 | 6.07 |
| CCCCCNc1oc2c(C)ncc(CO)c2c1Nc1cccc(F)c1 | 6.43 |
| CCCCCNc1oc2c(C)ncc(CO)c2c1Nc1ccccc1 | 5.65 |
| Cc1ncc(CO)c2c(Nc3cnccn3)c(NC3CCCCC3)oc12 | 4.98 |
